Where do the numbers come from? From patent US20180291082A1.

# Assay target: T1, HLA-B*44:02 (human)
# T1 construct: Peptide-receptive MHC monomer made by UV cleavage of a UV-sensitive peptide
# Procedure details: UV-ligand exchange, anti-b2m ELISA; exchange yield grade (+ >10%, ++ >20%, +++ >50, ++++ >75%)
Entries annotated with measured peptide exchange yield

Examples with answers:
[[record]]
binder = "SESAVFHGF"
result = "50 to 75%"

[[record]]
binder = "TEHTQSQAAW"
result = "50 to 75%"


In the following, a different binder is considered.
Q) Which peptide exchange yield is listed for HELENHSMY ?
A) 20 to 50%
